This collection of values is drawn from paper doi:10.1101/2024.04.15.589676.

Experiment: in vitro
Conditions: human, adult lung organoid monolayer

- COMPOUND: "Cc1cccc(/C=N/Nc2cc(N3CCOCC3)nc(OCCc3ccccn3)n2)c1 [Apilimod]"
  CC50 [µM]: 9.9

----------
System: Venezuelan equine encephalitis virus VEEV (TC-83)
Conditions: inhibitor; read-out: EC50 VEEV (TC-83), U-87 MG
pEC50: −log10 of the molar value.
MEASUREMENT TYPE: pEC50

- MOLECULE: "COc1ccc(-c2cnc3c(C#Cc4cccnc4)snc3c2)cc1OC [RMC-113]"
  OBS VALUE: 5.85

----------
Tested on: Huh7
Settings: human, huh7 cells

- STRUCTURE AS SMILES: "COc1ccc(-c2cnc3c(C#Cc4cccnc4)snc3c2)cc1OC"
  CC50: "> 10 µM"
